Assay: Pharmacokinetic test, single oral administration to beagle dogs
Assay type: in vivo
Conditions: dog, blood, 20 mg/kg, once, 20 mpk, vehicle 0.5% CMC-Na
Method: The crystalline form I of compound A monohydrochloride monohydrate and compound A (vehicles for both samples were 0.5% CMC-Na) were respectively orally administered once to two groups of beagle dogs at a dose of 20 mpk, and blood samples were collected before the administration (0 h) and at 0.25, 0.5, 1, 2, 4, 6, 8 and 24 hours after the administration. The samples were processed and subjected to a chromatographic analysis.
measured_attribute: Cmax (ng/mL)
Number in ng/mL, nothing else.

INPUT: State its Cmax: Cn1c(C(=O)N2CC(F)(F)C2)cc2ccc(-c3nccc(Nc4ccc(-c5cn[nH]c5)cc4)n3)cc21
OUTPUT: 147
